Lab note: IC50 readings collected with Primary amine oxidase, liver isozyme (Bos taurus) for the following compounds.
Sequence (Q29437 17-762 limits assumed): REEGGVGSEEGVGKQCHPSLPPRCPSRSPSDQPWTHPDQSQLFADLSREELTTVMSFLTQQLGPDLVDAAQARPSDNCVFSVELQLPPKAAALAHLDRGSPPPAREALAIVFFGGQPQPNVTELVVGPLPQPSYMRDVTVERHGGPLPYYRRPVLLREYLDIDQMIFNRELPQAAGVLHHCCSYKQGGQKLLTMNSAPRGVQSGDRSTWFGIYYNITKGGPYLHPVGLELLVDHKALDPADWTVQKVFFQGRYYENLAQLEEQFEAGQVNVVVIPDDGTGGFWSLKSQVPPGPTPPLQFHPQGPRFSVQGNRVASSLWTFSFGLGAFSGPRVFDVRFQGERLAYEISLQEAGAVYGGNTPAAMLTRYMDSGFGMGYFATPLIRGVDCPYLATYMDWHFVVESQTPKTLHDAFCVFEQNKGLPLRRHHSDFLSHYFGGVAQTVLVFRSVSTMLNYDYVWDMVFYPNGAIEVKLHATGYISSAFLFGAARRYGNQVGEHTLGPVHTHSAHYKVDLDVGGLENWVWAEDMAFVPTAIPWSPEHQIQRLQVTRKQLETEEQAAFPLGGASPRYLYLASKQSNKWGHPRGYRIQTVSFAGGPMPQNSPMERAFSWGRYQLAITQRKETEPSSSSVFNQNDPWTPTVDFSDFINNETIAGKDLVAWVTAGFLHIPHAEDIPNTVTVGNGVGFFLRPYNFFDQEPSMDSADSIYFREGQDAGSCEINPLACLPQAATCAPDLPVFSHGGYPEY
Entry rule: numbers only, all in µM.

Illustrative cases are given below, each with its answer.
CC#CCCN | 10
N#CC#CCN | 13

Then this compound:
Lookup: Which IC50 is reported with Primary amine oxidase, liver isozyme (Bos taurus) for this entry: NCC#CC#CCN ?
Found: 9

Recorded values, source BindingDB's records for patent US9161922.
